For each of the variants below, state its self-cleavage.
B1: Hairpin Ribozyme (parent)
chain: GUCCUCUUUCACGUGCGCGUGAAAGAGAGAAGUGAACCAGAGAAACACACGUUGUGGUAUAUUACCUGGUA

# Variants of: B1
# Assay notes: self-cleavage, relative activity (ratio to wild type); higher = more cleavage; co-transcriptional
One number for each entry.

>  <Mutation>
U9G A31U

>  <Measurement label>
self-cleavage

>  <Result>
0.1

$$$$
>  <Mutation>
G15A C37U

>  <Measurement label>
self-cleavage

>  <Result>
0.699

$$$$
>  <Mutation>
G34U G69A

>  <Measurement label>
self-cleavage

>  <Result>
0.93

$$$$

Please give self-cleavage for each item listed below.
1. U7G G25C
2. C12G U67C

0.253
0.233

Give self-cleavage for each of the items listed below.
1. A26C G57C
2. G19C C46G
3. G1A G29A
4. C18A U20A
5. C38G G68A

1: 0.0672; 2: 0.088; 3: 0.157; 4: 0.917; 5: 0.247

# return self-cleavage for each item in the list
1. C37A U58G
2. G21A C65A
3. G42A U62A
4. A28C U52A
5. C3G G54A
6. A26U U60C
7. G17U A30U

1: 0.269; 2: 0.861; 3: 0.151; 4: 0.492; 5: 0.177; 6: 0.898; 7: 0.116

Count: 6. Required value per item: self-cleavage.
1. A44G U58C
2. G54A G56U
3. G54C U60C
4. A24G A61C
5. G42C C50A
6. C10G A39C

0.0672
0.104
0.47
0.203
0.212
0.357

Hi, could you look up self-cleavage for each item in my list?
1. G1A G25U
2. A35C U62C

1: 0.102; 2: 0.103

# per-item lookup of self-cleavage; items listed below
1. G13A C50U
2. U5G G56U
3. A11U U53C

1. 0.373
2. 0.125
3. 0.975

List reported self-cleavage for each of these variants:
1. C12A G51U
2. U33G U58C
3. C50A G56U
4. G29U U58G
5. C16U G29A
6. A11C C16A
7. C46G G54C

1: 0.933; 2: 0.119; 3: 0.274; 4: 0.168; 5: 0.146; 6: 0.759; 7: 0.0768

Fill in self-cleavage for each of the 3 variants listed.
1. G1A U53G
2. G13C G27C
3. G17A A43C

0.0863
0.161
0.0401
